Test system: UACC-257 melanoma
Assay: NCI-60 one-dose screen, 48 h (100 = growth as untreated, 0 = no growth, -100 = all killed)
Conditions: 10 µM unless noted
About 83,000 compounds went through this panel and 20% of them were active in at least one assay; those are over-represented in the sample as a whole.
The label is Yes for growth below 90% and No for growth equal to or exceeding 90%.

Please review the entries below; each comes with its answer.
O=C(Nc1cc(Br)ccn1)c1cc2cc(Nc3nc(-c4ccccc4)nc4ccccc34)ccc2oc1=O: No
COc1ccc(-c2cc(C(=O)N3N=C(c4ccc(N)cc4)CC3c3ccc(OC)cc3)c3cc(OC)ccc3n2)cc1 (centres undefined): Yes
COc1ccc(/C=C/C(=O)Nc2ncnc3nc[nH]c23)cc1: No

Input line: Regarding CCCn1c2cc(OCc3cn(-c4ccc(Br)cc4)nn3)ccc2c2ccnc(C)c21 , kindly confirm whether its growth is beneath 90%.
Output line: Yes

Input line: Regarding CCOC(=O)c1c(C(F)(F)F)n([O-])c2ccc(Cl)cc2[n+]1=O , kindly confirm whether its growth is beneath 90%.
Output line: Yes

Input line: Regarding O=C(Nc1cccc(-c2cccc(F)c2)c1)C1CCN(Cc2cccc3cccnc23)CC1 , kindly confirm whether its growth is beneath 90%.
Output line: Yes

Input line: Regarding COc1c(O)cc2oc3cc(O[C@@H]4OC(C)[C@@H](O)[C@H](O)C4O)c(CC=C(C)C)c(O)c3c(=O)c2c1CC=C(C)C (some centres undefined) , kindly confirm whether its growth is beneath 90%.
Output line: No

Input line: Regarding O=C(NCc1ccccc1)c1ccc2c(c1)NC(=O)[C@@H]1CCCN21 , kindly confirm whether its growth is beneath 90%.
Output line: No

Input line: Regarding COCCOC(=O)COc1ccc(OC)cc1 , kindly confirm whether its growth is beneath 90%.
Output line: No

Input line: Regarding CC(=O)c1ccc(NC(=O)CSc2nnc(-c3cc(-c4ccc(Cl)cc4)nc4ccccc34)o2)cc1 , kindly confirm whether its growth is beneath 90%.
Output line: No

Input line: Regarding COc1ccc2[nH]c(=O)c(/C=C/C(=O)/C=C/c3ccc(O)c(OC)c3)cc2c1 , kindly confirm whether its growth is beneath 90%.
Output line: Yes

Input line: Regarding C=CCn1c(SCC(=O)Nc2ccc(C(=O)/C=C/c3ccc(Cl)cc3)cc2)nnc1-c1cc(OC)c(OC)c(OC)c1 , kindly confirm whether its growth is beneath 90%.
Output line: No

Input line: Regarding O=C(O)c1cn(C2CC2)c2cc(N3CCN(Cc4nnc(Nc5ccccc5)o4)CC3)c(F)cc2c1=O , kindly confirm whether its growth is beneath 90%.
Output line: No

Input line: Regarding CCCNc1nc(C)[nH]c(=O)c1S , kindly confirm whether its growth is beneath 90%.
Output line: No

----------
Test system: BT-549 breast
Assay: NCI-60 one-dose screen, 48 h (100 = growth as untreated, 0 = no growth, -100 = all killed)
Details: 10 µM unless noted
Description: Growth inhibition of the BT-549 human tumor cell line is measured as a screen for anti-cancer activity. Cells are grown in 96 well plates and exposed to the test compound for 48 hours. Compounds are tested at a single concentration, which is 10^-5 M for most compounds. The reported endpoint is percent growth (GI% or GIPRCNT), where numbers from 0 - 100% represent growth inhibition, and numbers from -100% - 0 represent cell death. For example, a value of 40 represents 60% growth inhibition. […]
The panel holds about 83,000 compounds, 20% with a hit somewhere; the sample as a whole holds those more often. The source made the active and inactive calls. Rule for the calls: active = growth percent below 10; inactive = the rest.
Measured growth accompanies every entry in the list below.

COC(=O)c1ccc(NC(=O)CSc2nc(-c3ccc(F)cc3)nc3ccccc23)cc1: 81.5% (inactive)
COc1ccc2nc(-c3ccc(Cl)cc3)cc(C(=O)N3N=C(c4ccc(N)cc4)CC3c3ccccc3)c2c1 (stereo not given): 44% (inactive)
Cc1c(Cl)cccc1NC(=O)c1sc2nc3c(cc2c1N)CCCCCC3: 11.2% (inactive)

Briefly, growth measured for O=C(Nc1ccccc1)NS(=O)(=O)c1c[nH]c(=S)[nH]c1=O : 92.1% (inactive)

Briefly, growth measured for Nc1c(C(=O)Nc2ccccn2)sc2nc3c(cc12)CCCCC3 : 52.6% (inactive)

----------
Test system: SNB-19 CNS
Assay: NCI-60 one-dose screen, 48 h (100 = growth as untreated, 0 = no growth, -100 = all killed)
Conditions: 10 µM unless noted
About 83,000 compounds went through this panel and 20% of them were active in at least one assay; those are over-represented in the sample as a whole.
Measured growth accompanies every entry in the list below.
Express it in %; write the number only.

O=C(O)C(C(=O)O)c1cccc2ccccc12: 98.3
Cc1ccc(C2CC(c3ccc(Nc4nc(NCCO)nc(NCCO)n4)cc3)=NN2c2ccc(Cl)cc2)cc1 (stereo not given): 75.5
Cc1cc(NC(=O)CNc2nc(Oc3ccc(F)cc3)nc(-c3ccc(F)cc3)n2)ccc1Cl: 100
O=C(Nc1ccc2ncnc(Nc3ccc(F)c(Cl)c3)c2c1)c1ccccc1: 76.8

Here is the next item to consider.
Briefly, growth measured for Nc1c(C(=O)Nc2cccc3ccccc23)sc2nc3c(cc12)CCCCC3 : 27.2

----------
Tested on: UACC-257 melanoma
Experiment: NCI-60 one-dose screen, 48 h (100 = growth as untreated, 0 = no growth, -100 = all killed)
Details: 10 µM unless noted
This is part of a sample that, as a whole, favours compounds with a hit. Of some 83,000 tested, about 20% had one in any assay.
Property measured: growth (%)
Express it in %; write the number only.

Reference set, count: 5
CN1CCN(S(=O)(=O)O[C@@H]2C(=O)N(c3cc4c5ccccc5ccc4c4ccccc34)[C@H]2c2ccc(F)cn2)CC1: 88.1
CN(C)CCCn1c2c(c3cc(-c4ccco4)ccc3c1=O)C(=O)c1ccccc1-2: 102
[2H]c1cc2c(c([2H])c1F)/C(=C/c1[nH]c(C)c(C(=O)NCCN(CC)CC)c1C)C(=O)N2: 69.2
O=C1C(=O)c2c(nc3ccc(C(F)(F)F)cn23)-c2ccccc21: -97.1
O=C1NC(c2ccc(F)cc2)N=C2C(c3ccccc3)=NOC12 (centres undefined): 96.7

Briefly, growth measured for Cc1c(Cl)cccc1NC(=O)c1sc2nc3c(cc2c1N)CCCCC3 : 67

Briefly, growth measured for CC(C)(C)c1nc2c(s1)c1nc(N)ncc1c1ccc(NS(=O)(=O)c3c(F)cccc3F)c(F)c12 : -13.1

Briefly, growth measured for CC(C)(C#N)c1cc(F)cc(C(=O)Nc2cc(Nc3ncccc3-c3ncnc4nc[nH]c34)ccc2F)c1 : 23.7

Briefly, growth measured for CCCCCCCCCCCCCC1=NCC[N+]1(CCO)Cc1ccccc1 (centres undefined) : -71.8

----------
Tested on: ACHN renal
Assay: NCI-60 one-dose screen, 48 h
Conditions: 10 µM unless noted
About 83,000 compounds went through this panel and 20% of them were active in at least one assay; those are over-represented in the sample as a whole. The source made the active and inactive calls. How the source made its calls: active means growth percent below 10; inactive means the rest.
Choose one outcome from this list and give only that: YES = active, NO = inactive

Please review the entries below; each comes with its answer.
O=C(NC[C@H](O)CN1CCc2ccccc2C1)c1cc(NC2COC2)ncn1: NO
C=C(C)[C@@H]1CC[C@]2(C(=O)n3ccnc3)CC[C@]3(C)[C@H](CC[C@@H]4[C@@]5(C)CCCNC(C)(C)[C@@H]5CC[C@]43C)[C@@H]12: NO
O=C(O)c1cc(N=Nc2ccc(-c3ccc(N=Nc4c(S(=O)(=O)O)cc5ccc(Nc6ccccc6)cc5c4O)cc3)cc2)ccc1O: NO
C#Cc1ccccc1NC(=O)c1sc2nc3c(cc2c1N)CCCCC3: NO
CCN(CC)CC#CCOC(=O)[C@]1(C)CCC[C@]2(C)[C@H]3C[C@H]4C(C(C)C)=C[C@]3(CC[C@H]21)[C@@H]1C(=O)CCC(=O)[C@@H]14: NO
CSc1cccc(NC(=O)Nc2nc3c(C)cccc3s2)c1: NO
CCOc1ccc(C2N(c3cc(OC)c(OC)c(OC)c3)C(=O)C2(F)F)cc1 (stereo not given): NO
CC1CCN(CCCCCOc2ccc3oc4cc(Cl)ccc4c(=O)c3c2)CC1: NO

Input line: So what was the verdict on C[C@]12CC[C@@H]3c4ccc(O)cc4CC[C@H]3[C@@H]1C[C@H](O)C2 in this test?
Output line: NO

Input line: So what was the verdict on CC1=C(CCCOC(=O)NCCCl)C2=C(C)C3(CC3)[C@@](C)(O)C(=O)C2=C1 in this test?
Output line: YES

Input line: So what was the verdict on c1ccc2nc(N3CCOCC3)c(N3CCCCC3)nc2c1 in this test?
Output line: NO

Input line: So what was the verdict on Cc1nc2sc(C(=O)Nc3ccccc3Cl)c(N)c2cc1C(C)O (stereo not given) in this test?
Output line: NO

Input line: So what was the verdict on O=C1C(Cl)=C(NCCCN(CCCNC2=C(Cl)C(=O)c3ccccc3C2=O)C2=C(Cl)C(=O)c3ccccc3C2=O)C(=O)c2ccccc21 in this test?
Output line: NO

Input line: So what was the verdict on Cc1cccc(C)c1NC(=O)CN(CC(C)C)CC(O)COc1ccccc1 (stereo not given) in this test?
Output line: NO

Input line: So what was the verdict on C=C(C)[C@@H]1CC[C@]2(C(=O)NCCCO)CC[C@]3(C)[C@H](CC[C@@H]4[C@@]5(C)CCCNC(C)(C)[C@@H]5CC[C@]43C)[C@@H]12 in this test?
Output line: NO

Input line: So what was the verdict on O=C1CCC23OC(c4ccccc4N12)C(O)C(O)C3O (stereo not given) in this test?
Output line: NO

Input line: So what was the verdict on CCSc1ccc(C2C(Br)C(=O)N2c2cc(OC)c(OC)c(OC)c2)cc1 (stereo not given) in this test?
Output line: NO

Input line: So what was the verdict on CCOC(=O)C1=C(C)n2nc(CC#N)c(C#N)c2NC1c1ccc(CC)cc1 (stereo not given) in this test?
Output line: NO

Input line: So what was the verdict on CCCCn1c(=O)c(/C=C/C(=O)/C=C/c2ccc(OC)cc2)cc2cc(Cl)ccc21 in this test?
Output line: NO

Input line: So what was the verdict on CCCCc1n(Cc2ccc3ccccc3c2)c2ccccc2[n+]1Cc1ccc2ccccc2c1 in this test?
Output line: YES

Input line: So what was the verdict on COC1=CC=CC2(OC)C3(O)CCCc4cccc(c43)N3C(=O)COC132 (stereo not given) in this test?
Output line: NO

Input line: So what was the verdict on COc1cc(/C=C/CO)cc(OC)c1O[C@@H]1O[C@H](CO)[C@@H](O)[C@H](O)[C@H]1O in this test?
Output line: NO

Input line: So what was the verdict on CN(C)c1ccc(-c2ccc3[nH]c(=O)nc(-c4ccc(F)cc4)c3c2)cn1 in this test?
Output line: NO

Input line: So what was the verdict on COc1ccc(-c2cc(-c3nnc(SCC(=O)Nc4ccc(/C(C)=N\O)cc4)o3)c3ccccc3n2)cc1 in this test?
Output line: NO

Input line: So what was the verdict on N#CCNc1ccc(C(=O)O)cc1 in this test?
Output line: NO
